- System: BTK
- condition.parameters: concentration: 1 μM, replicates: in singlicate; n = 1
Provide the reported %Inh of each item.
One number for each entry, in %.

compound: COc1cc2ncn(-c3cc(OCc4ccc(S(C)(=O)=O)cc4)c(C(N)=O)s3)c2cc1OC [GW869979]
quantity.name: %Inh
observed.value: 0
//
compound: COC(=O)c1c(-c2ccccc2)c2cc(Br)ccc2c(=O)n1Cc1ccc(S(C)(=O)=O)cc1
quantity.name: %Inh
observed.value: 47
//
compound: O=C(Nc1n[nH]c2nc(-c3ccccc3)c(Cl)cc12)C1CC1 [SB-734909]
quantity.name: %Inh
observed.value: 0

Record %Inh for all entries; do not skip any.
1. CCC(=O)c1c(-c2ccccc2)c2cc(Cl)ccc2c(=O)n1Cc1cc(S(C)(=O)=O)n(CC(F)F)n1
2. CCC(=O)c1c(-c2ccccc2)c2cc(Cl)ccc2c(=O)n1Cc1ccc(C(=O)O)cc1
3. CN1C(=O)C(Nc2ccccc2)=C(c2ccccc2)C1=O [SB-300079]

Ans:
[0, 0, 0]

Record %Inh for all entries; do not skip any.
1. COc1cc2ncn(-c3cc(OCc4ccncc4)c(C(N)=O)s3)c2cc1OC [GSK336313]
2. COc1ccc(-c2cc3c(C)nc(N)nc3n([C@H]3CC[C@H](OCCO)CC3)c2=O)cn1
3. Cl.NS(=O)(=O)c1cccc(Nc2cc(-c3ccc(F)cc3)n[nH]2)c1 [GW824645]
4. Nc1nc(-c2ccccc2F)c(-c2ccnc3ccccc23)s1 [GW560459]
5. O=C1NC(=O)C(c2ccccc2)=C1Nc1cccc(O)c1 [SB-390534]
6. COc1cc2ncn(-c3cc(OCCCc4ccccc4)c(C(N)=O)s3)c2cc1OC [GSK205189]
7. Nc1nc(N)c2nc(-c3ccccc3)[nH]c2n1 [SKF-12778]
8. COc1cc(Nc2ccnc3ccc(C(F)(F)F)cc23)cc(OC)c1OC [GW577382]

Ans:
1: 0; 2: 0; 3: 0; 4: 0; 5: 0; 6: 0; 7: 0; 8: 35

Working through the 7 compounds below one at a time, give %Inh for each.
1. CCC(=O)c1c(-c2ccccc2)c2cc(Cl)ccc2c(=O)n1Cc1cc(C(=O)NC2CC2)n(C)n1
2. CCn1c(-c2nonc2N)nc2ccccc21 [SB-693162/GW549034]
3. O=C(NCCNc1ccnc(Nc2ccc(F)cc2)n1)Nc1ccc2c(c1)OCO2 [GSK1379882]
4. Cc1nnc(-c2ccc(C)c(-c3ccc(C(=O)O)cc3)c2)o1 [GW608005]
5. COc1ccc(Nc2nccc(N3CCC(NS(=O)(=O)c4ccc(NC(C)=O)cc4)C3)n2)cc1 (centres unmarked) [GSK1379729]
6. CCCNC(=O)Nc1ccc(Oc2ncnc3ccn(C)c23)cc1
7. COc1cc2nccc(Nc3ccc(OCc4ccc(NC(C)=O)cc4)cc3)c2cc1OC.Cl [GW440135]

Ans:
[15, 29, 0, 0, 26, 0, 0]

---

- System: ADCK4
- condition.parameters: concentration: 1 μM, replicates: in singlicate; n = 1
Could you label it Yes if measured %Inh is 20% or higher, and No otherwise?

molecule: CC(C)(C)c1ccc(C(=O)Nc2cn3cc(-c4ccccc4)ccc3n2)cc1
subject.of.test: ADCK4
class.label: No

molecule: Nc1ncnc2c1ncn2-c1ccc(Cl)cc1
subject.of.test: ADCK4
class.label: Yes

With those in mind, consider the next molecule.
Q: Test whether the molecule `Cl.NS(=O)(=O)c1cccc(Nc2cc(-c3ccc(F)cc3)n[nH]2)c1` records %Inh of 20% or higher.
Ans: No

---

- System: MST1R
- condition.parameters: concentration: 1 μM, replicates: in singlicate; n = 1
Lab note: compare %Inh against 10%. Equal or greater, write Y. Smaller, write N.

Sample answers from the record:
compound: CN1C(=O)C(Nc2ccccc2)=C(c2ccccc2)C1=O
class.label: N

compound: Cc1c(Cn2c(C)nn3c(=O)cc(N4CCO[C@H](C)C4)nc23)cccc1C(F)(F)F
class.label: Y

compound: CCS(=O)c1ccc(-c2coc3ccc(-c4nnc(C)o4)cc23)cc1 (stereo not drawn)
class.label: Y

Q: Confirm if %Inh reported for the compound `Cc1nn2c(=O)cc(N3CCOCC3)nc2n1Cc1cccc(Cl)c1Cl` is 10% or above.
Ans: Y

Q: Test whether the compound `Cc1nc(N(C)[C@H]2CN(C(=O)CC#N)CC[C@H]2C)c2cc[nH]c2n1` records %Inh of 10% or higher.
Ans: N

Q: I'd appreciate it if you could say whether `O=C(Nc1n[nH]c2nc(-c3ccccc3)c(Cl)cc12)C1CC1` has %Inh at least equal to 10%.
Ans: N

---

- System: INSR;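 further: kd values determined as follow-up on hits from a single-replicate KINOMEscan panel screen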
quantity.name: Kd

Q: Specify measured Kd for Nc1nc(-c2ccccc2F)c(-c2ccnc3ccccc23)s1 [GW560459] .
Ans: > 10 µM

---

Field: %Inh. Provide a value for each of the compounds that follow.
- System: DLK
- Construct: gene MAP3K12
- condition.parameters: concentration: 1 μM, replicates: in singlicate; n = 1
Give bare numbers, in %.

compound: O=C(Nc1n[nH]c2nc(-c3ccccc3)c(Br)cc12)C1CC1
observed.value: 17
//
compound: Nc1n[nH]c2nnc(-c3ccccc3)c(-c3ccccc3)c12
observed.value: 25
//
compound: COc1ccc(CNC(=O)NC2CCN(c3ccnc(Nc4ccc(F)cc4)n3)C2)cc1 (centres unmarked)
observed.value: 42
//
compound: CCC(=O)c1c(-c2ccccc2)c2cc(Cl)ccc2c(=O)n1Cc1cc(S(C)(=O)=O)n(CCC(C)(C)O)n1
observed.value: 0
//
compound: Cl.NS(=O)(=O)c1cccc(Nc2cc(-c3ccc(F)cc3)n[nH]2)c1
observed.value: 0
//
compound: O=C(NCc1cccs1)c1cc(C(=O)c2c(Cl)cccc2Cl)c[nH]1
observed.value: 0

Fill in %Inh for each of the 2 compounds listed.
1. COc1cc2ncn(-c3cc(OCc4ccc(S(C)(=O)=O)cc4)c(C(N)=O)s3)c2cc1OC
2. CCc1ccc(-c2ccc3c(c2)-c2nn(C)cc2S(=O)(=O)N3C)cc1

Ans:
[13, 0]

---

- Test system: EPHA4
- condition.parameters: concentration: 1 μM, replicates: in singlicate; n = 1
quantity.name: %Inh (%)
One number for each entry, in %.

Please review the entries below; each comes with its answer.
test.smiles: CCc1nc(-c2cccc(C)c2)c(-c2ccncc2)s1
subject.of.test: EPHA4
unit.of.measurement: %
%Inh: 6
--
test.smiles: Cc1nnc(-c2ccc(C)c(-c3ccc(C(=O)O)cc3)c2)o1
subject.of.test: EPHA4
unit.of.measurement: %
%Inh: 18
--
test.smiles: COc1cccc(-n2cnc3c(N)ncnc32)c1
subject.of.test: EPHA4
unit.of.measurement: %
%Inh: 4
--
test.smiles: COc1cc2nccc(Nc3cccc(Oc4ccccc4)c3)c2cc1OC.Cl
subject.of.test: EPHA4
unit.of.measurement: %
%Inh: 0
--
test.smiles: CCC(=O)c1c(-c2ccccc2)c2cc(Cl)ccc2c(=O)n1Cc1cc(S(C)(=O)=O)n(CCC(C)(C)O)n1
subject.of.test: EPHA4
unit.of.measurement: %
%Inh: 17

Hey, quick one: what's %Inh for each of these?
1. O=C(Nc1n[nH]c2cc(-c3ccccc3F)ccc12)C1CC1
2. CCC(=O)c1c(-c2ccccc2)c2cc(Cl)ccc2c(=O)n1Cc1cc(S(C)(=O)=O)n(CC(N)=O)n1
3. Cc1ccccc1COc1cc(-n2cnc3cc(Cl)ccc32)sc1C(N)=O
4. Cl.c1ccc(Cn2cnc3cc(Nc4ncnc5ccccc45)ccc32)cc1

Ans:
0
0
0
12

---

- Test system: FGR
- condition.parameters: concentration: 1 μM, replicates: in singlicate; n = 1
For each record, write down the corresponding %Inh.
Numbers only, in %.

# annotated cases, reported %Inh shown
compound: CCC(=O)c1c(-c2ccccc2)c2cc(Cl)ccc2c(=O)n1Cc1cc(C(=O)NC2CC2)n(C)n1
subject.of.test: FGR
%Inh (%): 20
//
compound: COc1ccc(CNC(=O)NC2CCN(c3ccnc(Nc4ccc(F)cc4)n3)C2)cc1 (stereo not drawn)
subject.of.test: FGR
%Inh (%): 19
//
compound: CCCNC(=O)Nc1ccc(Oc2ncnc3ccn(C)c23)cc1
subject.of.test: FGR
%Inh (%): 0
//
compound: COc1cc(Nc2nccc(N3CCC(NC(=O)C4COc5ccccc5O4)C3)n2)cc(OC)c1OC (stereo not drawn)
subject.of.test: FGR
%Inh (%): 33
//
compound: Nc1ncnc2c1ncn2-c1ccc(Cl)cc1
subject.of.test: FGR
%Inh (%): 18
//
compound: COc1cc2ncn(-c3cc(OCc4ccncc4)c(C(N)=O)s3)c2cc1OC
subject.of.test: FGR
%Inh (%): 28
//
compound: Nc1nccc2scc(-c3ccc4c(c3)CCN4C(=O)Cc3ccccc3)c12
subject.of.test: FGR
%Inh (%): 22
//
compound: O=C(Nc1n[nH]c2nc(-c3ccccc3)c(Cl)cc12)C1CC1
subject.of.test: FGR
%Inh (%): 13

Provide %Inh for all items below, preserving their order.
1. FC(F)(F)c1ccc(-c2ncn(CCCN3CCOCC3)c2-c2ccncc2)cc1
2. COc1cc2ncn(-c3cc(OCCCc4ccccc4)c(C(N)=O)s3)c2cc1OC
3. COC(=O)c1c(-c2ccccc2)c2cc(C)ccc2c(=O)n1Cc1ccccc1
4. CN(C)c1cc(-c2ccc3c(N)n[nH]c3c2)nc(N)n1

Ans:
1: 11; 2: 21; 3: 2; 4: 19

Origin of the recorded values: paper PMC5540273
